I'd be grateful if you could share measured EC50 for these entries.
target: WT:G144S Kir2.1 (Homo sapiens, UniProt P63252, G144S); construct: gene KCNJ2; WT Kir2.1 co-expressed 1:1 with LQT7 mutant G144S Kir2.1 in Xenopus laevis oocytes; mixed tetramers, exact subunit stoichiometry not fixed; assay: two-electrode voltage clamp, slope conductance Gmax; assay type: cell-based
Answers are plain numbers, in µM.

>  <SUBSTANCE_SMILES>
CCCCCCCCCCCCCCCCCCCC(=O)NCCO

>  <TARGET_SYSTEM>
WT:G144S Kir2.1 (Homo sapiens, UniProt P63252, G144S)

>  <QUANTITY_MEASURED>
EC50

>  <MEASUREMENT_UNITS>
µM

>  <ASSAY_RESULT>
30.7

$$$$

Next:
Provide EC50, recorded with WT:G144S Kir2.1 (Homo sapiens, UniProt P63252, G144S), of `CCCCCCCCCCCCCCCC(=O)OC(CO)CO`
11.7

* * *

biological target: Kir2.1 (Homo sapiens, UniProt P63252); construct: gene KCNJ2; full-length human Kir2.1 cDNA in pcDNA3.1, RNA expressed in Xenopus laevis oocytes; homotetramer; test: two-electrode voltage clamp, slope conductance Gmax; format: cell-based
Sequence (P63252 whole entry): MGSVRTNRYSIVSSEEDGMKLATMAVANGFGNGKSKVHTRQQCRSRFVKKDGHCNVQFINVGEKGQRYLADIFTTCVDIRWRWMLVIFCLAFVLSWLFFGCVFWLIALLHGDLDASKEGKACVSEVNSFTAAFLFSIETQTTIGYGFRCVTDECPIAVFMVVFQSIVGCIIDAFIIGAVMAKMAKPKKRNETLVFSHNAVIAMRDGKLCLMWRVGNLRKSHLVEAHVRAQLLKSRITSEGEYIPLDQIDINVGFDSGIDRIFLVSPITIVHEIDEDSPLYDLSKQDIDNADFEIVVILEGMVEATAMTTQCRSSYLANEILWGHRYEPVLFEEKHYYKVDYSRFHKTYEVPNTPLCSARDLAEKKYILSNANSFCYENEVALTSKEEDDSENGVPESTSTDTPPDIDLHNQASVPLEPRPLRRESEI
Hi! Just check whether EC50 is below 20 µM. Below gives satisfied, equal or above gives not satisfied.

For orientation, consider the following solved cases.
>  <SUBSTANCE_SMILES>
CCCCC/C=C\C/C=C\C/C=C\C/C=C\CCCC(=O)OC(CO)CO

>  <CLASS_LABEL>
not satisfied

$$$$
>  <SUBSTANCE_SMILES>
CCCCCCCCCCCCCCCC(=O)OC(CO)CO

>  <CLASS_LABEL>
satisfied

$$$$
>  <SUBSTANCE_SMILES>
CC/C=C\C/C=C\C/C=C\CCCCCCCC(=O)NCCO

>  <CLASS_LABEL>
not satisfied

$$$$

Hi there! Is EC50 for `CCCCCCCC/C=C\CCCCCCCC(=O)NCCO` below 20 µM, do you know?
satisfied

Hi there! Is EC50 for `CCCCCCCC/C=C\CCCCCCCCCCCCCC(=O)NCCO` below 20 µM, do you know?
not satisfied

Hi there! Is EC50 for `CCCCCCCCCCCCCCCCCCCC(=O)NCCO` below 20 µM, do you know?
satisfied

Hi there! Is EC50 for `CCCCCCCCCCCCCCCCCC(=O)NCCO` below 20 µM, do you know?
satisfied

Hi there! Is EC50 for `CCCCC/C=C\C/C=C\CCCCCCCC(=O)NCCO` below 20 µM, do you know?
not satisfied

Data credit: paper PMC11381239
